Values were extracted from the supplement of paper PMC12764529.

Some sequences, each annotated with its measured folding stability dG unfold.
assay: folding stability dG unfold from trypsin proteolysis; higher = more stable
State just the number; it will be interpreted in kcal/mol.

SAGGLAKAVAEELGLPELKVKEVRFAPDPAGPGLTVEVVFELPDGSYLRVEVRFHPDRIEIKAVPLPPSAGG [r19_392_TrMRF]	2.09
SAGGSAGGSDPNNEPVYIMMKFEIEIKVERDPENGKPKAEDPITITFIIRIPPNGNLEIGIMISAGGSAGGS [r12_438_TrROS]	3.52

In plain terms, SAGMTTEKSPSGVGRVYLPTRTLELELLPDGTVVLRFPDGTEVVHPLSPEEAAAVRAELRARGLVVRPLSAG [r5_753_JUSTAS] has a documented folding stability dG unfold of 1.59

In plain terms, SAGGSAGGSAGGPKAPGDKAVPATVEVRVTEYAVVPGLGEKLEKLPEKTFKATFVFFNKSAGGSAGGSAGGS [r10_122_TrMRF] has a documented folding stability dG unfold of -0.48

In plain terms, SAGGMTTTTTFDGPTDEAFDLPSGVKVEPEPATGGYRVELPPGREVEVTVERSTDPGTVTWTFTFKESAGGS [r16_122_JUSTAS] has a documented folding stability dG unfold of 0.3

In plain terms, SAGGSAGGLEIVLPREELEELIRRGEIDEVEIERSEDDLVRARPIIRPPPPLPPEVGALLRALASAGGSAGG [r6_278_TrMRF] has a documented folding stability dG unfold of 0.891

In plain terms, SAGGSAGGSAGGPSAVSSSSSSRTTTVPGTGTPLRVSSTTTTLDAATGASTTTTTTSPGASAGGSAGGSAGG [r11_1029_JUSTAS] has a documented folding stability dG unfold of -0.553

In plain terms, SAGGSAGGSAGPNNMYPYEITIEVRDDGKPVKIKIEMYMSPNGEPMPPEQIKNFAKELAKSAGGSAGGSAGG [r17_373_TrROS] has a documented folding stability dG unfold of 0.382

In plain terms, SAGGSAGGMVKVYPIDPNTPPEAVVARLEKEFPDRPIKSVSVSTVGDVPVVTITFPDGLKVVVSSAGGSAGG [r6_492_JUSTAS] has a documented folding stability dG unfold of 0.975
